assayedTarget: human matrilysin (Matr) (Homo sapiens, UniProt P09237)
Construct: the catalytic domain was liberated by treatment with 2mM APMA; ubiquitin (fusion) (cleaved yes)
Sequence (P09237 95-267): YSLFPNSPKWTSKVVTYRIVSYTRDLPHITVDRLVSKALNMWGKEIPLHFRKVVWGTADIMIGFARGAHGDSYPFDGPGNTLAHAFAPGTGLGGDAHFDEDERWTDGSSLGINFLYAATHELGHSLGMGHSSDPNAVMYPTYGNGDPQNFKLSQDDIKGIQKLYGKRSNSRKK
experimentDescription: Inhibition of matrilysin (Matr) - fluorogenic MCA peptide substrate hydrolysis
conditionParameters: catalytic domain; Ki,app; MCA peptide substrate 10 μM, pH 7.5, 37° C., 2% DMSO
readout: log10(Ki) (log10 of the value in nM)

| smilesRepresentation | log10(Ki) |
| --- | --- |
| O=C(NO)[C@H]1CCCCN1S(=O)(=O)c1ccc(Oc2ccccc2)cc1 | 1.74 |
| O=C(NO)[C@H]1CCCCN1S(=O)(=O)c1ccc(Oc2ccc(Br)cc2)cc1 | 1.64 |
| O=C(NO)[C@H]1CCCCN1S(=O)(=O)c1ccc(Oc2ccc(-c3ccccc3)cc2)cc1 | 0.83 |
| O=C(O)[C@H]1CCCCN1S(=O)(=O)c1ccc(Oc2ccc(-c3ccccc3)cc2)cc1 | 4.86 |
| O=C(O)[C@H]1CCCCN1S(=O)(=O)c1ccc(Oc2ccc(Br)cc2)cc1 | 5.73 |

* * *

assayedTarget: human stromelysin-1 (Strom) (Homo sapiens, UniProt P08254)
Construct: The catalytic domain of human stromelysin (Sln) was obtained by expression and purification of a C-terminally truncated prostromelysin-1; made in house; host or cells: E. coli BL21
Sequence (P08254 100-272 limits assumed): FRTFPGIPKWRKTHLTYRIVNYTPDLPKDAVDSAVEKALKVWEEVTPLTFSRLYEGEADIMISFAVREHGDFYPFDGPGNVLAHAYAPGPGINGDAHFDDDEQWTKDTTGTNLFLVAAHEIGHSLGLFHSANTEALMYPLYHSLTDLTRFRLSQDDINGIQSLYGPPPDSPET
experimentDescription: Inhibition of stromelysin (Strom) - fluorogenic MCA peptide substrate hydrolysis
Format: biochemical
conditionParameters: catalytic domain; Ki,app; MCA peptide substrate 10 μM, pH 7.5, 37° C., 2% DMSO; enzyme 1.5 nM
I'd appreciate it if you could label each record using Ki and these ranges: lower band = under 0.07 nM, central band = from 0.07 nM up to 2000 nM, upper band = 2000 nM and over

| compound | classification |
| --- | --- |
| CC(C)[C@H](C(=O)NO)N(Cc1cccnc1)S(=O)(=O)c1ccc(Oc2ccc(Br)cc2)cc1 [Example 3(a)] | central band |
| O=C(O)[C@H]1CCCCN1S(=O)(=O)c1ccc(Oc2ccc(Br)cc2)cc1 [Example 5(a)] | upper band |
| CCOP(=O)(CN(CC(=O)NO)S(=O)(=O)c1ccc(Oc2ccccc2)cc1)OCC [Example 4] | central band |
| CC(C)[C@H](C(=O)NO)N(Cc1cccnc1)S(=O)(=O)c1ccc(Oc2ccccc2)cc1 [Example 3(b)] | central band |
| O=C(NO)[C@H]1CCCCN1S(=O)(=O)c1ccc(Oc2ccc(-c3ccccc3)cc2)cc1 [Example 6] | lower band |
| CCOP(=O)(CN(CC(=O)O)S(=O)(=O)c1ccc(Oc2ccccc2)cc1)OCC [Example 4(a)] | upper band |
| O=C(O)[C@H]1CCCCN1S(=O)(=O)c1ccc(Oc2ccc(-c3ccccc3)cc2)cc1 [Example 6(a)] | upper band |
| O=C(NO)[C@H]1CCCCN1S(=O)(=O)c1ccc(Oc2ccc(Br)cc2)cc1 [Example 5] | lower band |

* * *

Ki for assorted compounds
assayedTarget: human collagenase-3 (Coll-3)
experimentDescription: Inhibition of collagenase-3 (Coll-3) - fluorogenic MCA peptide substrate hydrolysis
conditionParameters: catalytic domain; Ki,app; MCA peptide substrate 10 μM, pH 7.5, 37° C., 2% DMSO

| smilesRepresentation | assayedTarget | Ki [nM] |
| --- | --- | --- |
| CC(C)[C@H](C(=O)NO)N(Cc1cccnc1)S(=O)(=O)c1ccc(Oc2ccc(Br)cc2)cc1 | human collagenase-3 (Coll-3) | 0.02 |
| CCOP(=O)(CN(CC(=O)NO)S(=O)(=O)c1ccc(Oc2ccccc2)cc1)OCC | human collagenase-3 (Coll-3) | 0.09 |
| O=C(O)[C@H]1CCCCN1S(=O)(=O)c1ccc(Oc2ccc(Br)cc2)cc1 | human collagenase-3 (Coll-3) | 448 |
| CC(C)[C@H](C(=O)NO)N(Cc1cccnc1)S(=O)(=O)c1ccc(Oc2ccccc2)cc1 | human collagenase-3 (Coll-3) | 0.05 |
| CCOP(=O)(CN(CC(=O)O)S(=O)(=O)c1ccc(Oc2ccccc2)cc1)OCC | human collagenase-3 (Coll-3) | 740 |
| O=C(NO)[C@H]1CCCCN1S(=O)(=O)c1ccc(Oc2ccc(Br)cc2)cc1 | human collagenase-3 (Coll-3) | 0.014 |
| O=C(O)[C@H]1CCCCN1S(=O)(=O)c1ccc(Oc2ccc(-c3ccccc3)cc2)cc1 | human collagenase-3 (Coll-3) | 212 |
